Biological target: CYP2A6 (Homo sapiens, UniProt P11509)
Sequence (P11509 1-494): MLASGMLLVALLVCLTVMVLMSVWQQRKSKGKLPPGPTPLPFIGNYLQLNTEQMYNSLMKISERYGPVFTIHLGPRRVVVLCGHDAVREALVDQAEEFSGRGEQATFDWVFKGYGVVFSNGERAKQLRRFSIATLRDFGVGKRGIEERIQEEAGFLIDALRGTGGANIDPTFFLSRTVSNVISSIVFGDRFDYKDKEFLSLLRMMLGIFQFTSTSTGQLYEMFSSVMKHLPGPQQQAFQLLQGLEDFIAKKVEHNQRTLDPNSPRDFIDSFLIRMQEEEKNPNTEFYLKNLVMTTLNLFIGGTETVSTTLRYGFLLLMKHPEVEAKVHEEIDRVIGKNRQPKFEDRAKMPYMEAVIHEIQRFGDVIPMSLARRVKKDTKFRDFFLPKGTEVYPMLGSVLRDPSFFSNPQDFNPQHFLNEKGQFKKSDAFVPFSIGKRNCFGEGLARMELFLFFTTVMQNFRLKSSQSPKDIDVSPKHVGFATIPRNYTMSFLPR
Assay: Effects of trapping agents and dialysis on inactivation of CYP2A6
Type: biochemical
Set-up: made in house
Settings: CYP2A6 inhibition reaction mixture, probe coumarin, compound 5 µM, read-out: Per cent remaining activity, 70 μM K3Fe(CN)6
Reported activity at 5 µM values are given for each entry in this list.
Write the number in % without appending the unit.

[[record]]
compound = "CC#Cc1ccc(C#CC#CC(O)CO)s1 (stereo not drawn)"
recorded_result = 11.2

[[record]]
compound = "CC#CC#Cc1ccc(C#CC(O)COC(C)=O)s1 (stereo not drawn)"
recorded_result = 22.7


Next compound, please.
The measured activity at 5 µM associated with CC#Cc1ccc(C#CC#CC(O)COC(C)=O)s1 (stereo not drawn) reads 19.2

###

Molecular target: CYP2A13 (Homo sapiens)
Construct: made in house
Experiment: Effects of trapping agents and dialysis on inactivation of CYP2A13
Type: biochemical
Conditions: CYP2A13 inhibition reaction mixture, probe coumarin, compound 5 µM, read-out: Per cent remaining activity, 2000 U catalase
Reported activity at 5 µM values are given for each entry in this list.
Write the number in % without appending the unit.

Please review the entries below; each comes with its answer.
[[record]]
compound = "CC#Cc1ccc(C#CC#CC(O)CO)s1 (stereo not drawn) [Thiophene 11]"
study_system = "CYP2A13 (Homo sapiens)"
recorded_result = 19.5

[[record]]
compound = "CC#CC#Cc1ccc(C#CC(O)COC(C)=O)s1 (stereo not drawn) [Thiophene 9]"
study_system = "CYP2A13 (Homo sapiens)"
recorded_result = 22.1


Next compound, please.
The measured activity at 5 µM that CC#Cc1ccc(C#CC#CC(O)COC(C)=O)s1 (stereo not drawn) [Thiophene 10] showed for CYP2A13 (Homo sapiens) is 22.2

###

Biological target: CYP2A6 (Homo sapiens, UniProt P11509)
Assay: Inhibition of CYP2A6-mediated coumarin 7-hydroxylation, enzymatic reconstitution assay
Assay type: biochemical
Set-up: made in house
Details: coumarin 0–40 µM
Reported Ki values are given for each entry in this list.
Write the number in µM without appending the unit.

Please review the entries below; each comes with its answer.
[[record]]
compound = "CC#Cc1ccc(C#CC#CC(O)COC(C)=O)s1 (stereo not drawn) [Thiophene 10]"
recorded_result = 2.07

[[record]]
compound = "CC#CC#Cc1ccc(C#CC(O)COC(C)=O)s1 (stereo not drawn) [Thiophene 9]"
recorded_result = 3.23


Next compound, please.
The measured Ki associated with CC#Cc1ccc(C#CC#CC(O)CO)s1 (stereo not drawn) [Thiophene 11] reads 1.8

###

Target: CYP2A6 (Homo sapiens, UniProt P11509)
Assay: Mechanism-based (time- and NADPH-dependent) inactivation of CYP2A6
Type: biochemical
Parameters: made in house
Conditions: human, recombinant human CYP2A6, probe coumarin; pre-incubation 0-30 min with NADPH
Reported kinact values are given for each entry in this list.
Write the number in s⁻¹ without appending the unit.

The measured kinact associated with CC#CC#Cc1ccc(C#CC(O)COC(C)=O)s1 (stereo not drawn) reads 0.00167

The measured kinact associated with CC#Cc1ccc(C#CC#CC(O)CO)s1 (stereo not drawn) reads 0.00167

The measured kinact associated with CC#Cc1ccc(C#CC#CC(O)COC(C)=O)s1 (stereo not drawn) reads 0.00183

###

Biological target: CYP2A13 (Homo sapiens, UniProt Q16696)
Construct: made in house
Experiment: Mechanism-based (time- and NADPH-dependent) inactivation of CYP2A13
Assay type: biochemical
Conditions: pre-incubation 0-30 min with NADPH; read-out: CYP2A13 KI (inactivation constant)
EXPERIMENTAL READOUT: KI (inactivation) (nM)
Write the number in nM without appending the unit.

Please review the entries below; each comes with its answer.
[[record]]
compound = "CC(=O)OCC1=C2/C(=C\\C3(C)CCC(O)(O3)C(C)CC2OC(=O)/C(C)=C/CO)OC1=O (stereo not drawn) [Hirsutinolide 8]"
recorded_result = 8620

[[record]]
compound = "CC#CC#Cc1ccc(C#CC(O)COC(C)=O)s1 (stereo not drawn) [Thiophene 9]"
recorded_result = 970


The measured KI (inactivation) associated with C=C(C)C(=O)OC1CC(C)C2(O)CCC(C)(/C=C3/OC(=O)C(COC(C)=O)=C31)O2 (stereo not drawn) [Hirsutinolide 5] reads 920

###

Molecular target: CYP2A13 (Homo sapiens, UniProt Q16696)
Construct: made in house
Assay: Effects of trapping agents and dialysis on inactivation of CYP2A13
Type: biochemical
Details: CYP2A13 inhibition reaction mixture, probe coumarin, compound 20 µM, read-out: Per cent remaining activity, Dialysis (+) NADPH
Experimental: MBI requires NADPH and time to generate reactive intermediate as inhibitor and ultimately inactivates the enzyme. MBI was evaluated by pre-incubation with each test inhibitor in the reaction at different time periods (0, 10, 20 and 30 min) in the presence of NADPH for time-dependent assay, as described. The apparent inactivation constants, KI and Kinact, were obtained from double reciprocal plots of kobs versus inhibitor concentrations by linear regression analysis on GraphPad Prism 5. […]
EXPERIMENTAL READOUT: activity at 20 µM (%)
Write the number in % without appending the unit.

The measured activity at 20 µM that CC(=O)OCC1=C2/C(=C\C3(C)CCC(O)(O3)C(C)CC2OC(=O)/C(C)=C/CO)OC1=O (stereo not shown) [Hirsutinolide 8] showed for CYP2A13 (Homo sapiens, UniProt Q16696) is 18.4

###

Molecular target: CYP2A13 (Homo sapiens, UniProt Q16696)
Construct: made in house
Sequence (Q16696 1-494): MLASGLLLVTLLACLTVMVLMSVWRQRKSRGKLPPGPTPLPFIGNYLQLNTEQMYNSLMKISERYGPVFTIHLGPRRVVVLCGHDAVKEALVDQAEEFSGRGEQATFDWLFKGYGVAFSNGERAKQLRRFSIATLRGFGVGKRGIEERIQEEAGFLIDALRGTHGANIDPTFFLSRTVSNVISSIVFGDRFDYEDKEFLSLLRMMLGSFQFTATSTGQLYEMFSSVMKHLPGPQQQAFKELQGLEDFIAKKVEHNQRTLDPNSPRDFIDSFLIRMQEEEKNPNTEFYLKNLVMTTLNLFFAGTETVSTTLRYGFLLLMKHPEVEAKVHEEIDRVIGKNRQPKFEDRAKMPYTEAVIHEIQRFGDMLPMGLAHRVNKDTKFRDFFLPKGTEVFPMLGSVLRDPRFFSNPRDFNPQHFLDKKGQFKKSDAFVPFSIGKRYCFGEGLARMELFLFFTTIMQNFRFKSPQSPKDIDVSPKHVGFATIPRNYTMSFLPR
Experiment: Mechanism-based (time- and NADPH-dependent) inactivation of CYP2A13
Type: biochemical
Conditions: pre-incubation 0-30 min with NADPH
EXPERIMENTAL READOUT: kinact (s⁻¹)
Write the number in s⁻¹ without appending the unit.

Please review the entries below; each comes with its answer.
[[record]]
compound = "C/C=C(\\C)C(=O)OC1CC(C)C2(O)CCC(C)(/C=C3/OC(=O)C(COC(C)=O)=C31)O2 (stereo not drawn) [Hirsutinolide 6, 8α-tigloyloxyhirsutinolide-13-O-acetate]"
recorded_result = 0.001

[[record]]
compound = "CC#Cc1ccc(C#CC#CC(O)COC(C)=O)s1 (stereo not drawn) [Thiophene 10]"
recorded_result = 0.001


The measured kinact associated with C=C(CO)C(=O)OC1CC(C)C2(O)CCC(C)(/C=C3/OC(=O)C(COC(C)=O)=C31)O2 (stereo not drawn) [Hirsutinolide 7] reads 0.001

// data source = paper PMC6009911
